assay: Half life in human; assay type: ADME, organism-based; conditions: in vivo
outcomeMeasure: half-life (h)
All answers are understood in h, so give the number only.

INPUT: Looking for the measured half-life of CCCCCCCCCCCCCCCCOP(=O)([O-])OCC[N+](C)(C)C [MILTEFOSINE] , can you help?
OUTPUT: 144
